target: human NAMPT (Homo sapiens (Human)); test: NMN fluorescence biochemical assay (human recombinant NAMPT enzyme assay)
Sequence (P43490 whole entry): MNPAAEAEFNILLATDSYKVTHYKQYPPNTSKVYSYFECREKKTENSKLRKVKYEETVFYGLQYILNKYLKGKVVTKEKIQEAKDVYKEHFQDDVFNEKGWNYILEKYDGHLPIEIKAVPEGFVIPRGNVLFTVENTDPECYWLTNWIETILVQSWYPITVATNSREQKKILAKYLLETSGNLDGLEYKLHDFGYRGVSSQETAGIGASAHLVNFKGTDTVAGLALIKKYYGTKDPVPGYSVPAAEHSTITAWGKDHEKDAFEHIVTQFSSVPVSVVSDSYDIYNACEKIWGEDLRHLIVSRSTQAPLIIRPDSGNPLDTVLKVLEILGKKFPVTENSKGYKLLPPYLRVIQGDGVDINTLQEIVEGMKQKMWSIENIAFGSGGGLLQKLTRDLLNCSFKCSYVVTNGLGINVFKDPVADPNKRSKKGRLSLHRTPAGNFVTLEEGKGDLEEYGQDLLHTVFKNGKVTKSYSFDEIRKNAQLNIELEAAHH
measure: AC1.4 Human (µM)

[[record]]
molecule = "CN(C)S(=O)(=O)N1CCC(c2ccc(NC(=O)OCc3cnco3)cc2)CC1"
assayed_target = "human NAMPT (Homo sapiens (Human))"
scale_unit = "µM"
observed_result = 0.07


(A) O=C(Nc1ccc(CC2CCN(C(=O)C3CCC3)CC2)cc1)OCc1ccc(Cl)cc1
(B) CC1(C)CCN1C(=O)Cc1ccc(NC(=O)OCc2ccc(Cl)cc2)cc1
// max by AC1.4 Human over [ A , B ] Output the label that corresponds to your choice.
B

----------
test system: P-gp (MDR1); assay: MDR1-MDCK bidirectional permeability assay; details: dog, MDCK-MDR1, pH 7.4, Efflux ratio
measure: efflux ratio at 120 min, 1 μM

[[record]]
chemical_string = "CC(=O)N1CCC(Cc2ccc(NC(=O)OCc3ccc(Cl)cc3)cc2)CC1"
measure = "efflux ratio at 120 min, 1 μM"
observed_result = 1.93

[[record]]
chemical_string = "O=C(Nc1ccc(CC2CCN(C3COC3)CC2)cc1)OCc1ccc(Cl)cc1"
measure = "efflux ratio at 120 min, 1 μM"
observed_result = 0.92

[[record]]
chemical_string = "CN(C)C(=O)N1CCC(CCc2ccc(NC(=O)OCc3cnco3)cc2)CC1"
measure = "efflux ratio at 120 min, 1 μM"
observed_result = 3.32

[[record]]
chemical_string = "CN(C)S(=O)(=O)N1CCC(Cc2ccc(NC(=O)OCc3cnco3)cc2)CC1"
measure = "efflux ratio at 120 min, 1 μM"
observed_result = 1.99

[[record]]
chemical_string = "CC(=O)N1CCC(c2ccc(NC(=O)OCc3cnco3)cc2)CC1"
measure = "efflux ratio at 120 min, 1 μM"
observed_result = 5.41


(A) O=C(Nc1ccc(CCC2CCN(C3COC3)CC2)cc1)OCc1cnco1
(B) O=C(Nc1ccc(CN2CCC[C@@H]2c2cccnc2)cc1)OCc1ccc(CO)cc1
For the pair A and B , which member has the lower efflux ratio at 120 min, 1 μM number? Output the label that corresponds to your choice.
A
